Biological target: adenovirus type 13 vector particles (human adenovirus type 13)
Experiment: SPR; hydrophobic (slow) component of one-to-two model
quantityName: pKd
Numbers only, as −log10 of the molar value.

Which pKd value belongs to human platelet factor 4 (natural protein) EAEEDGDLQCLCVKTTSQVRPRHITSLEVIKAGPHCPTAQLIATLKNGRKICLDLQAPLYKKIIKKLLES ?
7.89

Sourced from paper PMC12775996
